Data provenance: the supplement of paper PMC9170038

# Tested on: MS2 coat protein
# protocolNotes: apparent KD of MS2 coat protein; designed switch direction (-1 OFF switch, 1 ON switch): -1; higher = weaker reporter binding
# appliedConditions: input ligand: none
experimentalReadout: apparent KD of MS2 coat protein (nM)
Answers are plain numbers, in nM.

{"columns": ["residueSequence", "unitString", "dataValue"],
 "data": [
  ["CCAAGCUUUUUCCUUAACAACAUGAGGAUCACCCAUGUGUAAGCUAUUCGGUUUGGGCUCUUUAGUGCUCGUCUUAU [malcom mod] (Eterna round: R97, puzzle: Sensor, turn-off variant 1)", "nM", 19.7],
  ["CGGAAAUCCUAGGAUAUGCUAGACGAAAGUCUAGCAGAAGGAGGAACAUGAGGAUCACCCAUGUGUCCUAUCCG [Mat - Exclusion 6 - Eli Mod - D16] (Eterna round: R97, puzzle: Exclusion 6)", "nM", 17.1],
  ["AACAGAAAAGAAAUAAAUAACAUGAGGAUCACCCAUGUCAACGGGUAAGAGCUCAACGAGCUGCGAGUCUUACUCAA [Enreaerre] (Eterna round: R96, puzzle: Sensor v2, turn-off variant)", "nM", 24.7],
  ["GGCAUACCACAAGCUUUUUACAUGAGGAUCACCCAUGUGGUUUUUAGUCUUAUCCCGGGCCCGAUAUCGGGCCCGGG [-33.9, -54.7, A 19%] (Eterna round: R97, puzzle: Sensor, turn-off variant 1)", "nM", 38.3]
]}

From here, focus on the item given below.
Please tell me: apparent KD of MS2 coat protein of AGCCACAGAGGAUAUACAUACAUCCAGUGGUUAAGAAUACUACAUGAGGAUCACCCAUGUAGAAGGCUGUGGCA [Omei Ex2 BD B11] (Eterna round: R97, puzzle: Exclusion 2) , system MS2 coat protein?
22.4

----------
# Test system: MS2 coat protein
# protocolNotes: apparent KD of MS2 coat protein; higher = weaker reporter binding
# appliedConditions: Eterna round: R107; input ligand: none
experimentalReadout: apparent KD of MS2 coat protein (nM)
Answers are plain numbers, in nM.

{"columns": ["residueSequence", "experimentalReadout", "dataValue"],
 "data": [
  ["GGAUAGGACACGGCCGCCACUAGCUAGGAUACUAGCAACAUUUCCUCACUUGAGGAACACCCAAGUAGGACCGGGUGUCCUAUCG", "apparent KD of MS2 coat protein", 517],
  ["ACACAUGAGGAUCACCCAUGUGCCCAUGAAGGAGCGUGGGAAACCACAGGUAGGUCGCAUGACAUGAGGAUCACCCAUGUUUAUU [Astarte]", "apparent KD of MS2 coat protein", 41.9],
  ["UUGACAUGAGGAUCACCCAUGUCAAAGGCACGAGGACCGGUACGGCCGCCACUCGUGGUCUAUGGCUGGUGGACUCGUGUCUCGG [Soisusdira]", "apparent KD of MS2 coat protein", 12]
]}

From here, focus on the item given below.
I am curious: what apparent KD of MS2 coat protein value has been reported for UGAUGGUGCUGAAGGAGCGUGUAAGAACAAGAACAUGAGGAUCACCCAUGUAUUAAUUUAACGCAGGUAGGUCGCGGUGUUAUUG [11.M] ?
20.2

----------
# Test system: MS2 coat protein
# protocolNotes: apparent KD of MS2 coat protein; higher = weaker reporter binding
# appliedConditions: Eterna round: R107; input ligand: arginine 13.2 mM
Values of apparent KD of MS2 coat protein greater than or equal to 40 nM map to Met; values below map to Not met.

Record excerpt, results attached:
{"columns": ["residueSequence", "testedSystem", "class"],
 "data": [
  ["ACAUCUUGUACGGCCGCCACUAACAGAUUCAGCGUCGGAGCCAACUACAUGAGGAUCACCCAUGUUAGGACCGGGUACUGUCCAC [theeternabot_exclusion_MS2_Trp_B_47]", "MS2 coat protein", "Not met"],
  ["AACAUGAGGAUCACCCAUGUCCUCGUGUUCCGAGGACCGGUACGGCCGCCACUCGGUCCUCGCGAGGAUGGUCAAAGACUAUCCA [Omei Trp A SS B v3]", "MS2 coat protein", "Met"],
  ["CCUCAAUCGUCGGCCGCCACUGAAUCAUGCGGAUACAUGAGGAUCACCCAUGUGGGUGUGGUACGCAGGACCGGGACAAGACCCG [#14 Same State - Tryptophan B]", "MS2 coat protein", "Met"],
  ["AAAUAAAUAACUGAUACCAGUGGACUGACAUGAGGAUCACCCAUGUUGGGUUUUGUUGUCCACCCUUGGCAGCGGGCAUAUAAAA [#25 Exclusion-TheophyllineB]", "MS2 coat protein", "Not met"],
  ["UGAUUGAACGGAAGGAGCGUGAAGAGAGAGAAACAUGAGGAUCACCCAUGUAGAGAGAGAACACAGGUAGGUCGCCGAGAGAUUG [11.B]", "MS2 coat protein", "Not met"],
  ["ACGUAAUGCAGAAGGAGCGUCUAUGUGUUACAUGAGGAUCACCCAUGUGUUAUGUUAUGUGGACAGGUAGGUCGCUGAAGUACGA [JR_SSArginiB_Sub005]", "MS2 coat protein", "Met"],
  ["AUAACAUGAGGAUCACCCAUGUAGAGUGAUACCAGACUAUGUAAUGUCCCUUGGCAGCACAAGUAAAGUUAUAAAUAAUGAUAGA [JR_SSTheophyA_Sub001]", "MS2 coat protein", "Met"],
  ["AUAUGAUCAUGUGAUACCAGAAAUGGUAUUCCUCGCUGGAUUACAUGAGGAUCACCCAUGUUCCCUUGGCAGCAUAUGAUCAUAU [#01 Exclusion-TheophyllineB]", "MS2 coat protein", "Not met"],
  ["GAUAUUUGAAAACAAAUAUCAGUGGGUGAACGAGGACCGGUACGGCCGCCACUCGGACAUGAGGAUCACCCAUGUCCAUGUGAAA [AstrosExyTryA#7]", "MS2 coat protein", "Not met"],
  ["GCACGAGUAAGACCUGACUUCAACAAUGAUACCAGACUAGUAAACGUCCCUUGGCAGCAUCAGACAUGAGGAUCACCCAUGUGGC [theeternabot_exclusion_MS2_Theo_A_44]", "MS2 coat protein", "Not met"]
]}

Could you tell me if the measured apparent KD of MS2 coat protein of AGGACGGUCGGAAGGAGCGGUACAUGAGGAUCACCCAUGUACUUAUGGGCAUCCGUAGAGUGCCAGGUAGGUCGCCGAUUGCGGG [XArg-B11] reaches 40 nM or more?
Not met
